Experiment: inhibitors of HIV-1 Env-driven cell-cell fusion, primary screen, HeLa-JRFL effector, CEM21 target cells, luciferase (AID 651610);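 also: 0% = plate neutral controls and 100% = maraviroc near 300 nM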
Conditions: active compounds read high; at 16.7 µM unless noted
The whole screen tested about 360,000 compounds, of which about 3,900 (1.1%) were called active. The sample as a whole holds a higher share of actives than the screen did.
Each record here notes measured inhibition.

For orientation, consider the following solved cases.
{"Smiles String": "CC(=O)N1C[C@@H](CO)[C@@H](N(C)C(=O)C(C)(C)C)C[C@H]1c1ccccc1Br", "Metric Name": "inhibition", "Result": "-6.57% [at 12.3 µM] (inactive)"}
{"Smiles String": "C[C@H](O)C#Cc1ccc2c(c1)O[C@@H](CN(C)CC1CCCC1)[C@H](C)CN([C@@H](C)CO)S2(=O)=O", "Metric Name": "inhibition", "Result": "-37.3% (inactive)"}
{"Smiles String": "CCCN(C)C[C@H]1OCCCC[C@@H](C)Oc2ccc(N(C)C)cc2C(=O)N([C@H](C)CO)C[C@@H]1C", "Metric Name": "inhibition", "Result": "0.797% (inactive)"}
{"Smiles String": "COCc1cn(CC[C@@H]2CC[C@@H](NC(=O)Cc3cccnc3)[C@@H](CO)O2)nn1", "Metric Name": "inhibition", "Result": "7.99% (inactive)"}
{"Smiles String": "CNC(=O)C[C@@H]1CC[C@H]2[C@@H](COc3ccc(NC(=O)NCc4ccccc4)cc3C(=O)N2C)O1", "Metric Name": "inhibition", "Result": "-0.208% (inactive)"}
{"Smiles String": "CN1CCN(C(=O)C[C@@H]2C[C@@H]3c4cc(NC(=O)c5ccc6c(c5)OCO6)ccc4O[C@@H]3[C@H](CO)O2)CC1", "Metric Name": "inhibition", "Result": "2.49% (inactive)"}
{"Smiles String": "C[C@H](CO)N1C[C@H](C)[C@H](CN(C)S(=O)(=O)c2cccs2)Oc2ccc(NS(=O)(=O)c3ccccc3)cc2C1=O", "Metric Name": "inhibition", "Result": "37% (inactive)"}

Then there is this molecule:
// query Output measured inhibition for this item: O=C(C[C@H]1C[C@@H]2c3cc(NC(=O)C4CCC4)ccc3O[C@@H]2[C@H](CO)O1)NCCN1CCCCC1
// result 16.8% (inactive)
